src = patent US12122761B2

# TESTED_ON: Cloned human M1 receptor (CHRM1) stably expressed in HEK293 cells (Homo sapiens)
# Sequence (P11229 1-460): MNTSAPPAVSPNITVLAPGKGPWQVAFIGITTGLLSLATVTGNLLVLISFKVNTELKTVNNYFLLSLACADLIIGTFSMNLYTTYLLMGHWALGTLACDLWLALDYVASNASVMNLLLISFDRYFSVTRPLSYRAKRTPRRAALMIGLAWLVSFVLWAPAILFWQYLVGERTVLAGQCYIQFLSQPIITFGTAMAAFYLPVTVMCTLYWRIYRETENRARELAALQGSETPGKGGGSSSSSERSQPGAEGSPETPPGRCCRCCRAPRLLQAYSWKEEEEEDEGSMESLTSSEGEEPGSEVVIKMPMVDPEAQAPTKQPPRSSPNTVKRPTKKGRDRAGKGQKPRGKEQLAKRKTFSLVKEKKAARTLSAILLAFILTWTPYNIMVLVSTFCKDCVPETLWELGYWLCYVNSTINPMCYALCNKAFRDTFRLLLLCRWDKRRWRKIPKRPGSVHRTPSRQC
# ASSAY: CHRM1 Ca++ Flux Assay (agonist mode, FDSS 7000EX)
# MEASUREMENT_CONTEXT: geometric mean if tested more than once
Field: class. Source value: EC50. Ranges: bottom end (below 50 nM), midrange (50 nM to below 200 nM), top end (200 nM or more)

Hi there! Could you help me figure out the category for COc1ccc(Cl)cc1C1CCN([C@H]2CCC3(C2)CN(C(=O)C2(F)CC2)C3)CC1 (single isomer, unassigned) [Example 8A] please?
top end

// repeat for O=C(C1COC1)N1CC2(CC[C@@H](N3CCC(c4ccc(F)cc4OC(F)F)CC3)C2)C1 and report
bottom end

Please do the same for CC(C)(O)COc1ccccc1C1CCN([C@@H]2CCC3(C2)CN(c2nncs2)C3)CC1 as well.
midrange

// query: Fc1cccc(C2CCN([C@@H]3CCC4(C3)CN(c3nncs3)C4)CC2)c1OC1COC1
midrange

Please do the same for O=C(C1COC1)N1CC2(CC[C@@H](N3CCC(c4ccccc4OC4CCCC4)CC3)C2)C1 as well.
bottom end

Subsequent entry: FC(F)Oc1ccccc1C1CCN([C@@H]2CCC3(C2)CN(c2nncs2)C3)CC1 (single isomer, unassigned) [Example 10O]
bottom end

Another compound to look at: COc1ccccc1C1CCN([C@@H]2CCC3(C2)CN(c2nccnc2C(F)(F)F)C3)CC1
top end

Please answer likewise for COC(C)(C)CCOc1ccccc1C1CCN([C@@H]2CCC3(C2)CN(C(=O)C2(F)CC2)C3)CC1 (single isomer, unassigned)
midrange

More entries:
Exercise: read the entry OC1CCC(c2ccccc2C2CCN([C@@H]3CCC4(C3)CN(c3nnco3)C4)CC2)CC1 (single isomer, unassigned) and state which class it falls under.
midrange

Also O=C(C1COC1)N1CC2(CC[C@@H](N3CCC(c4ccccc4OCCOC(F)(F)F)CC3)C2)C1 , if possible.
midrange

Try the compound COc1ccccc1C1CCN([C@@H]2CCC3(C2)CN(c2cncnc2)C3)CC1
midrange

Likewise for CC(C)(O)COc1ccccc1C1CCN([C@@H]2CCC3(C2)CN(c2ncncn2)C3)CC1 ?
top end

Moving on to the next compound: CC(C)(O)COc1ccccc1C1CCN([C@@H]2CCC3(C2)CN(c2ncns2)C3)CC1
midrange
